Tested on: pERK in HCT116 cells
TEST DETAILS: Inhibition of KRas phosphorylation of ERK (Cisbio HTRF pERK assay)
EXPERIMENTAL PARAMETERS: Homo sapiens, HCT-116, read-out: Inhibition (HTRF IC50) of KRas-mediated Phosphorylation of ERK, HCT116
ASSAY METRIC: IC50 (nM)

> print(dat)
                                   compound                target  reported.value
1  CCc1c(F)ccc2cc(O)cc(-c3ncc4c(N5CCC[C@@](C)(O)C5)nc(OC[C@]56CCCN5[C@H](CO)CC6)nc4c3F)c12  pERK in HCT116 cells             179

[1] CCc1c(F)ccc2cc(O)cc(-c3ncc4c(N5CCC[C@@](C)(O)C5)nc(OC[C@@]56CCCN5[C@H](COC(=O)N(C)C)CC6)nc4c3F)c12
[2] CCc1c(F)ccc2cc(O)cc(-c3ncc4c(N5CCCCC(O)C5)nc(OC[C@@]56CCCN5C[C@H](F)C6)nc4c3F)c12 (stereo partly drawn)
Incoming: Field: entry with larger IC50 (options 1 / 2 ). State your choice using its label.
Outgoing: 2

###

Tested on: pERK in MKN1 cells
TEST DETAILS: Inhibition of KRas phosphorylation of ERK (Cisbio HTRF pERK assay)
EXPERIMENTAL PARAMETERS: Homo sapiens, MKN-1, 3 h, read-out: Inhibition (HTRF IC50) of KRas-mediated Phosphorylation of ERK, MKN1
pIC50: −log10 of the molar value.
ASSAY METRIC: pIC50

> print(dat)
                                   compound  assay.metric  reported.value
1  Oc1cc(-c2ncc3c(N4CC5CC(O)CC4C5)nc(OC[C@@]45CCCN4C[C@H](F)C5)nc3c2F)c2c(Cl)c(F)ccc2c1 (some centres unmarked)         pIC50            7.59
2  CCc1c(F)ccc2cc(O)cc(-c3ncc4c(N5CC[C@@H](C)[C@@H](O)C5)nc(OC[C@@]56CCCN5C[C@H](F)C6)nc4c3F)c12         pIC50            7.54
3  CCc1c(F)ccc2cc(O)cc(-c3ncc4c(N5C[C@H](C)C[C@@H](O)C5)nc(OC[C@@]56CCCN5C[C@H](F)C6)nc4c3F)c12         pIC50            7.42
4  CCc1c(F)ccc2cc(O)cc(-c3ncc4c(N5CCCC(C#N)CC5)nc(OC[C@@]56CCCN5C[C@H](F)C6)nc4c3F)c12 (some centres unmarked)         pIC50            7.38
5  O=C1NC[C@]2(CCCN(c3nc(OC[C@@]45CCCN4C[C@H](F)C5)nc4c(F)c(-c5cc(O)cc6ccc(F)c(Cl)c56)ncc34)C2)N1         pIC50            7.34

[1] CCc1c(F)ccc2cc(O)cc(-c3ncc4c(N5CCC[C@]6(C5)C[C@](C)(O)C6)nc(OCC56CCCN5CCC6)nc4c3F)c12
[2] CCc1c(F)ccc2cc(O)cc(-c3ncc4c(N5CCOC6(CCS(=O)(=O)CC6)C5)nc(OC[C@@]56CCCN5C[C@H](F)C6)nc4c3F)c12
[3] CCc1c(F)ccc2cc(O)cc(-c3ncc4c(N5CCCCCC(S(C)(=O)=O)C5)nc(OC[C@@]56CCCN5C[C@H](F)C6)nc4c3F)c12 (some centres unmarked)
Incoming: With regard to pIC50, arrange the entries in ascending order, please. Put the labels in the requested order and write them down.
Outgoing: 2, 1, 3
(2: 5.71, 1: 6.57, 3: 8.70)

###

Tested on: pERK in PSN1 cells
TEST DETAILS: Inhibition of KRas phosphorylation of ERK (Cisbio HTRF pERK assay)
EXPERIMENTAL PARAMETERS: Homo sapiens, PSN1, 3 h, read-out: Inhibition (HTRF IC50) of KRas-mediated Phosphorylation of ERK, PSN1
ASSAY METRIC: IC50 (µM)

Example results:
COMPOUND	UNITS	REPORTED VALUE
CCc1c(F)ccc2cc(O)cc(-c3ncc4c(N5CCC[C@@](C)(O)C5)nc(OC[C@@]56CCCN5[C@@H](CO)CC6)nc4c3F)c12	µM	3.93
CCc1c(F)ccc2cc(O)cc(-c3ncc4c(N5CCCC6(CCS(=O)(=O)C6)C5)nc(OC[C@@]56CCCN5C[C@H](F)C6)nc4c3F)c12 (stereo partly drawn)	µM	1.95
CCc1c(F)ccc2cc(O)cc(-c3ncc4c(N5CCCn6nc(C(=O)N(C)CC)cc6C5)nc(OC[C@@]56CCCN5C[C@H](F)C6)nc4c3F)c12	µM	9.77
CCc1c(F)ccc2cc(O)cc(-c3ncc4c(N5CCOC[C@@](C)(O)C5)nc(OCC5(CN6CCCC6)CC5)nc4c3F)c12	µM	7.76
CCc1c(F)ccc2cc(O)cc(-c3ncc4c(N5CCC[C@@](C)(O)C5)nc(OCC5(CN6CCN(C)CC6)CC5)nc4c3F)c12	µM	4.12
CCc1c(F)ccc2cc(O)cc(-c3ncc4c(N5CCCCC(O)C5)nc(OC[C@@]56CCCN5C[C@H](F)C6)nc4c3F)c12 (stereo partly drawn)	µM	4.46
CCNC(=O)c1cc2n(n1)CCCN(c1nc(OC[C@@]34CCCN3C[C@H](F)C4)nc3c(F)c(-c4cc(O)cc5ccc(F)c(CC)c45)ncc13)C2	µM	9.3
CCc1c(F)ccc2cc(O)cc(-c3ncc4c(N5CCCC(CO)C5)nc(OC[C@@]56CCCN5C[C@H](F)C6)nc4c3F)c12 (stereo partly drawn)	µM	6.8
C[C@@]1(O)CCCN(c2nc(OC[C@@]34CCCN3C[C@H](F)C4)nc3c(F)c(-c4cc(O)cc5ccc(F)c(Cl)c45)ncc23)C1	µM	0.596
CCc1c(F)ccc2cc(O)cc(-c3ncc4c(N5C[C@@H]6C[C@H](C5)[C@H](O)C6)nc(OC[C@@]56CCCN5C[C@H](F)C6)nc4c3F)c12 (single isomer, unassigned)	µM	0.922

[a] Oc1cc(-c2ncc3c(N4CC5CC(O)CC4C5)nc(OC[C@@]45CCCN4C[C@H](F)C5)nc3c2F)c2c(Cl)c(F)ccc2c1 (stereo partly drawn)
[b] CCc1c(F)ccc2cc(O)cc(-c3ncc4c(N5CCCOC(CO)C5)nc(OC[C@@]56CCCN5C[C@H](F)C6)nc4c3F)c12 (stereo partly drawn)
Incoming: # min-compare on IC50 between a and b State your choice using its label.
Outgoing: a
(a: 1.81 µM, b: 5.93 µM)

[a] NS(=O)(=O)CC1CCCN(c2nc(OC[C@@]34CCCN3C[C@H](F)C4)nc3c(F)c(-c4cc(O)cc5ccc(F)c(F)c45)ncc23)C1 (stereo partly drawn)
[b] CCc1c(F)ccc2cc(O)cc(-c3ncc4c(N5CCCn6nc(C(=O)NC(C)C)cc6C5)nc(OC[C@@]56CCCN5C[C@H](F)C6)nc4c3F)c12
[c] Oc1cc(-c2ncc3c(N4CC5CC(O)C(C5)C4)nc(OC[C@@]45CCCN4C[C@H](F)C5)nc3c2F)c2c(Cl)c(F)ccc2c1 (stereo partly drawn)
Incoming: With regard to IC50, arrange the entries in ascending order, please. Put the labels in the requested order and write them down.
Outgoing: c, a, b

###

TARGET: KRas G12D (Homo sapiens, UniProt P01116, G12D)
Sequence (P01116 1-169 isoform P01116-2 G12D): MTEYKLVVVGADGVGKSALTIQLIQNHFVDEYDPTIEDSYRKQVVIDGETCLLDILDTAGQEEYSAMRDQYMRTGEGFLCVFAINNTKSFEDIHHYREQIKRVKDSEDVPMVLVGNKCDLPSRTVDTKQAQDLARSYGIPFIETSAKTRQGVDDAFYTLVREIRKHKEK
TEST DETAILS: biochemical
pIC50: −log10 of the molar value.
ASSAY METRIC: pIC50

[A] CCc1c(F)ccc2cc(O)cc(-c3ncc4c(NCCN5CCNC5=O)nc(OC[C@@]56CCCN5C[C@H](F)C6)nc4c3F)c12 [Example 372]
[B] O=C1NC(=O)C2CN(c3nc(OCC45CCCN4CCC5)nc4c(F)c(-c5cccc6cccc(F)c56)ncc34)CC12 (centres unmarked) [Example 228]
[C] CC1(O)CCCN(c2nc(OCC34CCCN3CCC4)nc3c(F)c(-c4cc(O)cc(Cl)c4C4CC4)ncc23)C1 (centres unmarked) [Example 71]
[D] CCc1c(F)ccc2cc(O)cc(-c3ncc4c(N5CCN6C(=O)NC(=O)C6C5)nc(OC[C@@]56CCCN5C[C@H](F)C6)nc4c3F)c12 (some centres unmarked) [Example 381]
[E] O=C1CC(CNc2nc(OCC34CCCN3CCC4)nc3c(F)c(-c4cccc5cccc(F)c45)ncc23)C(=O)N1 (centres unmarked) [Example 236]
Incoming: Sort by pIC50 with smallest numbers at the start of the list. Put the labels in the requested order and write them down.
Outgoing: E, B, A, D, C

###

TARGET: KRas G12D (Homo sapiens, UniProt P01116, G12D);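 also: TR-FRET displacement binding assay on KRas, read after a one-hour incubation at room temperature, IC50 fitted from percent-of-control values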
TEST DETAILS: biochemical
ASSAY METRIC: IC50 (nM)

Example results:
> print(dat)
                                   compound                                    target  reported.value
1  CCc1c(F)ccc2cc(O)cc(-c3ncc4c(N5CC(c6ccncc6)C5)nc(OC[C@@]56CCCN5C[C@H](F)C6)nc4c3F)c12  KRas G12D (Homo sapiens, UniProt P01116, G12D)               9
2  CCc1c(F)ccc2cc(O)cc(-c3ncc4c(NCc5ncc6cc[nH]c6n5)nc(OC[C@@]56CCCN5C[C@H](F)C6)nc4c3F)c12  KRas G12D (Homo sapiens, UniProt P01116, G12D)              14
3  CCc1c(F)ccc2cc(O)cc(-c3ncc4c(N5CCCC6(CC(F)C6)C5)nc(OC[C@@]56CCCN5C[C@H](F)C6)nc4c3F)c12 (stereo partly drawn)  KRas G12D (Homo sapiens, UniProt P01116, G12D)             138

[I] CCc1c(F)ccc2cc(O)cc(-c3ncc4c(N5CCN6C(C5)C(=O)NC6(C)C)nc(OC[C@@]56CCCN5C[C@H](F)C6)nc4c3F)c12 (stereo partly drawn)
[II] Oc1cc(-c2ncc3c(N4CC5CC(O)C(C5)C4)nc(OC[C@@]45CCCN4C[C@H](F)C5)nc3c2F)c2c(Cl)c(F)ccc2c1 (stereo partly drawn)
Incoming: Field: entry with larger IC50 (options I / II ). State your choice using its label.
Outgoing: I
